- System: HCV replicon 1AY93H
- EXPERIMENTAL_DETAILS: microbe, parasite or virus in culture
- Assay type: cell-based, Hepatitis C virus (HCV)
- STUDY_CONDITIONS: read-out: 1A Y93H IC50; replicon 1AY93H; Replicon Assay A
- Description: To measure cell-based anti-HCV activity of compounds of the present invention, two complimentary assays were employed using various replicons. […] The replicon RNA level was measured using real time PCR (TaqMan® EZ RT-PCR, Applied Biosystems 403028) with the following primers and probes: […] The amount of HCV replicon RNA per cell is quantified using a linear regression curve for a known nanogram (ng) amount of HCV replicon total RNA. […]
READOUT_LABEL: IC50 (nM)

{"columns": ["COMPOUND", "READOUT_LABEL", "UNIT_ABBREV", "NUMBER"],
 "data": [
  ["COC(=O)NC(C(=O)N1CCC[C@H]1c1ncc(-c2ccc3c(c2)cc2n3C(c3cc(C)c(C)s3)Oc3cc(-c4cnc([C@@H]5CCCN5C(=O)[C@@H](NC(=O)OC)C5CCOCC5)[nH]4)cc(F)c3-2)[nH]1)C(C)(C)F (single isomer, unassigned) [Compound 130]", "IC50", "nM", 0.24],
  ["COC(=O)NC(C(=O)N1CCC[C@H]1c1ncc(-c2ccc3c(c2)cc2n3C(c3cc(C)c(C)s3)Oc3cc(-c4cnc([C@@H]5CCCN5C(=O)[C@@H](NC(=O)OC)C5CCOCC5)[nH]4)cc(F)c3-2)[nH]1)C(C)(C)F (single isomer, unassigned) [Compound 129]", "IC50", "nM", 0.8]
]}

---

- Test system: HCV replicon 2B
- EXPERIMENTAL_DETAILS: microbe, parasite or virus in culture
- Format: cell-based, Hepatitis C virus (HCV)
- STUDY_CONDITIONS: read-out: 2B IC50; HCV replicon 2B; Replicon Assay A

{"columns": ["COMPOUND", "IC50"],
 "data": [
  ["COC(=O)N[C@H](C(=O)N1CCC[C@H]1c1ncc(-c2cc(F)c3c(c2)OC(c2cc(C)c(C)s2)n2c-3cc3cc(-c4cnc([C@@H]5C[C@H]6C[C@H]6N5C(=O)[C@@H](NC(=O)OC)C(C)C)[nH]4)ccc32)[nH]1)C(C)C (single isomer, unassigned) [Compound 509]", "6820 pM"],
  ["COC(=O)NC(C(=O)N1CCC[C@H]1c1ncc(-c2ccc3c(c2)cc2n3C(c3ccc(C4CC4)s3)Oc3cc(-c4cnc([C@@H]5C[C@H]6C[C@H]6N5C(=O)[C@@H](NC(=O)OC)C(C)C)[nH]4)cc(F)c3-2)[nH]1)C1C[C@@H](C)O[C@@H](C)C1 (single isomer, unassigned) [Compound 537]", "1100 pM"],
  ["COC(=O)N[C@H](C(=O)N1CCC[C@H]1c1ncc(-c2ccc3c(c2)OC(c2ccc(C4CC4)s2)n2c-3c(F)c3cc(-c4cnc([C@@H]5C[C@H]6C[C@H]6N5C(=O)[C@@H](NC(=O)OC)C(C)C)[nH]4)ccc32)[nH]1)C(C)C (single isomer, unassigned) [Compound 613]", "342 pM"],
  ["COC(=O)N[C@H](C(=O)N1CCC[C@H]1c1ncc(-c2ccc3c(c2)OC(c2ccc(C4CC4)s2)n2c-3c(F)c3cc(-c4cnc([C@@H]5CCCN5C(=O)[C@@H](NC(=O)OC)C(C)C)[nH]4)ccc32)[nH]1)C(C)C (single isomer, unassigned) [Compound 606]", "286 pM"]
]}

---

- System: HCV replicon 2B
- EXPERIMENTAL_DETAILS: microbe, parasite or virus in culture
- Assay type: cell-based, Hepatitis C virus (HCV)
- STUDY_CONDITIONS: Hepatitis C virus, read-out: 2B IC50, HCV replicon 2B; Replicon Assay A
pIC50: −log10 of the molar value.
READOUT_LABEL: pIC50

{"columns": ["COMPOUND", "READOUT_LABEL", "NUMBER"],
 "data": [
  ["COC(=O)N[C@H](C(=O)C1NCC[C@H]1c1ncc(-c2ccc3c(c2)OC(c2ccc(C4CC4)s2)n2c-3cc3cc(-c4c[nH]c([C@@H]5C[C@H]6C[C@H]6N5C(=O)[C@@H](NC(=O)OC)C(C)C)n4)ccc32)[nH]1)C(C)C (mixture of isomers)", "pIC50", 8.82],
  ["COC(=O)NC(C(=O)N1CCC[C@H]1c1ncc(-c2ccc3c(c2)c(F)c2n3C(c3ccc(C4CC4)s3)Oc3cc(-c4cnc([C@@H]5CCCN5C(=O)[C@@H](NC(=O)OC)C(C)C)[nH]4)cc(F)c3-2)[nH]1)C1CCOC(C)(C)C1 (single isomer, unassigned)", "pIC50", 11.15],
  ["COC(=O)N[C@H](C(=O)N1C[C@H](F)C[C@H]1c1ncc(-c2ccc3c(c2)OC(c2cc4ccccc4s2)n2c-3cc3cc(-c4cnc([C@@H]5C[C@@H](F)CN5C(=O)[C@@H](NC(=O)OC)C5CCOCC5)[nH]4)ccc32)[nH]1)C(C)C (mixture of isomers)", "pIC50", 8.70],
  ["COC(=O)N[C@H](C(=O)N1CCC[C@H]1c1ncc(-c2cc(F)c3c(c2)OC(c2scc4c2OCCO4)n2c-3cc3cc(-c4cnc([C@@H]5C[C@H](F)CN5C(=O)[C@@H](NC(=O)OC)C(C)C)[nH]4)ccc32)[nH]1)C(C)C (single isomer, unassigned)", "pIC50", 7.48]
]}

---

- System: HCV replicon 1AQ30D
- EXPERIMENTAL_DETAILS: microbe, parasite or virus in culture
- Assay type: cell-based, Hepatitis C virus (HCV)
- STUDY_CONDITIONS: Hepatitis C virus, read-out: 1A Q30D IC50 (nM), replicon 1AQ30D; Replicon Assay B
- Procedure: In an alternate assay (“Replicon Assay B”), 1000 cells were seeded per well in a 384-well collagen coated black plate from Greiner bio-one (Cat #781946) in 5% FBS. Inhibitors of this invention were added at 24 h post-seeding, and the plates were incubated for 3 days. […] HCV replicon RNA level was measured by real-time PCR using the RNA-to-CT kit from Applied Biosystem (Cat #4392656) and genotype-specific primers and probes. […]
READOUT_LABEL: IC50 (nM)

{"columns": ["COMPOUND", "READOUT_LABEL", "UNIT_ABBREV", "NUMBER"],
 "data": [
  ["COC(=O)NC(C(=O)N1CCC[C@H]1c1ncc(-c2cc(F)c3c(c2)OC(c2ccc(C4CCC4)s2)n2c-3cc3cc(-c4cnc([C@@H]5CCCN5C(=O)[C@@H](NC(=O)OC)C5CCOCC5)[nH]4)ccc32)[nH]1)C(C)(C)F (single isomer, unassigned) [Compound 248]", "IC50", "nM", 0.43],
  ["COC(=O)N[C@H](C(=O)N1CCC[C@H]1c1ncc(-c2cc(F)c3c(c2)OC(c2ccc(-c4ccc(I)cc4)s2)n2c-3cc3cc(-c4cnc([C@@H]5CCCN5C(=O)[C@@H](NC(=O)OC)C(C)C)[nH]4)ccc32)[nH]1)C(C)C (mixture of isomers) [Compound 313]", "IC50", "nM", 0.19],
  ["COC(=O)NC(C(=O)N1CCC[C@@H]1c1ncc(-c2ccc3c(c2)cc2n3C(c3ccc(CC4CC4)s3)Oc3cc(-c4cnc([C@@H]5CCCN5C(=O)[C@@H](NC(=O)OC)C(C)C)[nH]4)cc(F)c3-2)[nH]1)C1C[C@@H](C)O[C@@H](C)C1 (stereo partly shown) [Compound 376]", "IC50", "nM", 0.0424],
  ["COC(=O)NC(C(=O)N1CCC[C@H]1c1ncc(-c2ccc3c(c2)cc2n3C(c3ccc(C4CC4)s3)Oc3cc(-c4cnc([C@@H]5CCCN5C(=O)[C@@H](NC(=O)OC)C(C)C)[nH]4)cc(F)c3-2)[nH]1)C1C[C@@H](C)O[C@@H](C)C1 (single isomer, unassigned) [Compound 206]", "IC50", "nM", 2.91]
]}

---

- Test system: HCV replicon 1A
- EXPERIMENTAL_DETAILS: microbe, parasite or virus in culture
- Format: cell-based, Hepatitis C virus (HCV)
- STUDY_CONDITIONS: HCV replicon 1A; Replicon Assay A
Reported IC50 values for the following molecules.

{"columns": ["MOLECULE", "ASSAY_SYSTEM", "IC50"],
 "data": [
  ["COCc1ccc(C2Oc3cc(-c4cnc([C@@H]5CCCN5C(=O)[C@@H](NC(=O)OC)C(C)C)[nH]4)cc(F)c3-c3cc4cc(-c5cnc([C@@H]6CCCN6C(=O)[C@@H](NC(=O)OC)[C@@H]6C[C@@H](C)O[C@@H](C)C6)[nH]5)ccc4n32)s1 (single isomer, unassigned) [Compound 533]", "HCV replicon 1A", "3.73 pM"],
  ["COC(=O)N[C@H](C(=O)N1CCC[C@H]1c1ncc(-c2ccc3c(c2)OC(c2cc4sccc4s2)n2c-3cc3cc(-c4c[nH]c([C@@H]5C[C@H]6C[C@H]6N5C(=O)[C@@H](NC(=O)OC)C(C)C)n4)ccc32)[nH]1)C(C)C (single isomer, unassigned) [Compound 716]", "HCV replicon 1A", "3.8 pM"],
  ["COC(=O)N[C@H](C(=O)N1CCC[C@H]1c1ncc(-c2cc(C)c3c(c2)OC(c2cc4c(s2)CCC4)n2c-3cc3cc(-c4cnc([C@@H]5CCCN5C(=O)[C@@H](NC(=O)OC)C5C[C@@H](C)O[C@@H](C)C5)[nH]4)ccc32)[nH]1)C(C)C (single isomer, unassigned) [Compound 549]", "HCV replicon 1A", "7.15 pM"],
  ["COC(=O)N[C@H](C(=O)N1CCC[C@H]1c1ncc(-c2cc(F)c3c(c2)OC(c2scc4c2OCCO4)n2c-3cc3cc(-c4cnc([C@@H]5C[C@H](F)CN5C(=O)[C@@H](NC(=O)OC)C(C)C)[nH]4)ccc32)[nH]1)C(C)C (single isomer, unassigned) [Compound 527]", "HCV replicon 1A", "15.5 pM"]
]}
